src = patent US20170252458A1

tested-system: T1, Recombinant human mesothelin (human, UniProt Q13421 296-580, limits assumed)
T1 construct: also called MSLN
T1 sequence (Q13421 other isoform, or with tags, fused parts or gaps limits assumed): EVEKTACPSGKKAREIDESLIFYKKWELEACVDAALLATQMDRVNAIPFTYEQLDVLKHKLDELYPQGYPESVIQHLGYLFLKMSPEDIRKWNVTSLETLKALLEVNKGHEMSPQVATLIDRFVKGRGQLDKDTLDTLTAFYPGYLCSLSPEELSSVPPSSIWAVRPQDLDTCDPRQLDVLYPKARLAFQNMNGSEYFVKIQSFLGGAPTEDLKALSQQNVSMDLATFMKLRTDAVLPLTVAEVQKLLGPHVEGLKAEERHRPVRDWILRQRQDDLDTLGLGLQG
run-description: Biacore T100, antibody captured on anti-human IgG, antigen injected, 1:1 Langmuir
parameter-measured: Kd

Ask | Name the reported Kd value associated with the binder 201C15-xi (antibody, human IgG1, kappa, V domains shown, Rabbit-human chimeric anti-human mesothelin with unpaired cysteine at LCcys80; parental mAb in Biacore) VH: QSVKESGGRLVTPGTPLTLTCTVSGIDLSSYAMGWFRQAPGKGLEYIGTINIGGRVYYASWAKGRFTISRTSTTVDLKAPSLTAEDTATYFCARYYNGGSYDIWGPGTLVTVSL VL: DVVMTQTPASASEPVGGTVTIKCQASESIYRVLAWYQQKPGQPPKLLIYDTSTLASGAPSRFKGSGYGTEFTLTISGVQCEDAATYYCQGGYYADSYGIAFGGGTEVVVKR
Reply | 1.1 nM
